assayed system: Gal(a1-4)Gal(b1-3)GlcNAc(b1-2)Man(a1-3)[Gal(a1-4)Gal(b1-3)GlcNAc(b1-2)Man(a1-6)]Man(b1-4)GlcNAc(b1-4)GlcNAc
assay summary: glycan array binding signal (z-score within array); higher = stronger binding
run parameters: glycan notation: IUPAC condensed, linker removed
This is one part of a sample in which the strongest signals are shown more often than they occur.
Kindly return yes (1) if reported glycan array binding signal (z-score) is no lower than -0.06; return no (0) if it is lower.

-- ask Please check the record MGL1 (Mus musculus), P49300 (protein) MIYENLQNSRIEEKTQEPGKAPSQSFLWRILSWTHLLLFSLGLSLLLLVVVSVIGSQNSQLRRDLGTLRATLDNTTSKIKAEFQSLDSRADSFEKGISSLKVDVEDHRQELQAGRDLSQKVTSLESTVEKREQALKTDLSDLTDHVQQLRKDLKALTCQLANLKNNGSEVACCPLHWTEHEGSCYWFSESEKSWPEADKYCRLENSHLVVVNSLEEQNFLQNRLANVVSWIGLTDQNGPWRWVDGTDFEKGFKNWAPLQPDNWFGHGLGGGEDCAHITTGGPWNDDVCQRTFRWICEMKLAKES and state if its glycan array binding signal (z-score) is at or above -0.06.
-- reply yes (1)

-- ask Hi, just wondering whether CrataBL (Crataeva tapia), C0HJA4 (protein) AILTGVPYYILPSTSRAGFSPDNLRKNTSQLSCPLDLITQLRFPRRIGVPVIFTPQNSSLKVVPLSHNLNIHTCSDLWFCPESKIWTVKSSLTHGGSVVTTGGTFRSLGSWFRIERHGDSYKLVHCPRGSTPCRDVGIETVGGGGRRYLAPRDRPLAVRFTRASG shows glycan array binding signal (z-score) of -0.06 or higher.
-- reply no (0)

-- ask Is glycan array binding signal (z-score) for UEA-I (Ulex europaeus), P22972 (protein) SDDLSFKFKNFSQNGKDLSFQGDASVIETGVLQLNKVGNNLPDETGGIARYIAPIHIWNCNTGEVASFITSFSFFMETSANPKAATDGLTFFLAPPDSPLRRAGGYFGLFEDTKDNDSSYQTVAVEFDTIGSPVNFDDPGFPHIGIDVNRVKSINAERWNKRYGLNNVANVEIIYEASSKTLTASLTYPSDQTSISVTSIVDLKEILPEWVSVGFSGGTYIGRQATHEVLNWYFTSNLIN at or above -0.06?
-- reply no (0)

-- ask Could you please find out whether rCNL (Clitocybe nebularis), B2ZRS9 (protein) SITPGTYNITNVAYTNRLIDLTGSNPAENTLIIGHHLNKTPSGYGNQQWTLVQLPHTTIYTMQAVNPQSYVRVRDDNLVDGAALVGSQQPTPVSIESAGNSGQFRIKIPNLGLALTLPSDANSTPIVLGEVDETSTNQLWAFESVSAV has glycan array binding signal (z-score) that meets -0.06 or exceeds it?
-- reply no (0)

-- ask Record EUL D1A first (Oryza sativa) (protein) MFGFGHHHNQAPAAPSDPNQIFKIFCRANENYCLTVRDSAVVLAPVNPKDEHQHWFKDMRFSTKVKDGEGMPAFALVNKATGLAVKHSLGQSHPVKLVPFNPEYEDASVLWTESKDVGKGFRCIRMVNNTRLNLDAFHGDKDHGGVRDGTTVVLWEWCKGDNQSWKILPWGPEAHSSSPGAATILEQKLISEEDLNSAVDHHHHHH ; criterion: glycan array binding signal (z-score) no lower than -0.06. Met?
-- reply yes (1)

This collection of values is drawn from the supplement of paper PMC8728848.
